Reported relative binding affinity (ratio to native VEGF (8-109)) values are given for each entry in this list.
# system.under.test: T1, KDR (1-3) (UniProt P35968 20-327, limits assumed)
# T1 construct: domain: domains 1 to 3; Genentech reagent; also called KDR (1-3) monomer; domains 1 to 3 of KDR
# test.description: competition ELISA vs biotinylated native VEGF (8-109) for KDR (1-3)
# Description: Receptor binding assays were performed in 96-well immunoplates (Maxisorp, Nunc-Immunoplate, Nalge Nunc International, Rochester, N.Y.). […] Aliquots of this mixture (100 μl) were added to the precoated microtiter wells and the plate was incubated for 1 hour at room temperature. […] Absorbance was read at 450 nm on a Vmax plate reader (Molecular Devices, Menlo Park, Calif.). […]
Number in ratio, nothing else.

Observe how each entry below is paired with its result.
* LK-VRB-10s (ligand, human, UniProt P15692-4 27-135, looked up) APMAEGGGQNHHEVVKFMDVYQRSSCHPIETLVDIFQEYPDEIEYIFKPSCVPLMRCGGCCNSEMRECVPTEESNITMQIMRIKPHQGQHIGEMSFLQHNKCECRPKKD | 0.5
* LK-VRB-17s (ligand) APMAEGGGQNHHEVVKFEDVLRRSYCHPIETLVDIFQEYPDEIEYIFKPSCVPLMRCGGCCNSEMRECVPTEESNITMQIMRIKPHQGQHIGEMSFLQHNKCECRPKKD | 130
* LK-VRB-25s (ligand, human, UniProt P15692-4 27-135, looked up) APMAEGGGQNHHEVVKFEDVLRRSSCHPIETLVDIFQEYPDEIEYIFKPSCVPLMRCGGCCNSEGRECVPTEESNITMQIMRIKPHQGQHIGEMSFLQHNKCECRPKKD | 4
* LK-VRB-1s* (ligand, human, UniProt P15692-4 27-135, looked up) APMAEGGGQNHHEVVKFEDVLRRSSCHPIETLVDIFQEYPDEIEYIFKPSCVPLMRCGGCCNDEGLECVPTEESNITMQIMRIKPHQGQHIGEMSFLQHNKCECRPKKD | 1
* LK-VRB-13s (ligand, human, UniProt P15692-4 27-135, looked up) APMAEGGGQNHHEVVKFEDVYQRSSCHPIETLVDIFQEYPDEIEYIFKPSCVPLMRCGGCCNSEMRECVPTEESNITMQIMRIKPHQGQHIGEMSFLQHNKCECRPKKD | 14
* LK-VRB-23s (ligand, human, UniProt P15692-4 27-135, looked up) APMAEGGGQNHHEVVKFEDVLRRSSCHPIETLVDIFQEYPDEIEYIFKPSCVPLMRCGGCCNDEGRECVPTEESNITMQIMRIKPHQGQHIGEMSFLQHNKCECRPKKD | 11
* LK-VRB-16s (ligand, human, UniProt P15692-4 27-135, looked up) APMAEGGGQNHHEVVKFMDVYRRSSCHPIETLVDIFQEYPDEIEYIFKPSCVPLMRCGGCCNSEMRECVPTEESNITMQIMRIKPHQGQHIGEMSFLQHNKCECRPKKD | 0.6

Can you look up the measured relative binding affinity (ratio to native VEGF (8-109)) of LK-VRB-24s (ligand, human, UniProt P15692-4 27-135, looked up) APMAEGGGQNHHEVVKFEDVLRRSSCHPIETLVDIFQEYPDEIEYIFKPSCVPLMRCGGCCNSEMLECVPTEESNITMQIMRIKPHQGQHIGEMSFLQHNKCECRPKKD for me?
10
